Test: Metabolic stability in human liver microsomes assessed as compound remaining after 30 mins
Format: ADME
Conditions: read-out: Stability
The reader will find reported remaining at 0.5 h values listed item by item below.
Give the value, in units of %, as a plain number.

COC(=O)N[C@H](C(=O)N1CCC[C@H]1C(=O)Nc1ccc([C@H]2CC[C@H](c3ccc(NC(=O)[C@@H]4CCCN4C(=O)[C@@H](NC(=O)OC)C(C)C)cc3)N2c2ccc(F)cc2)cc1)C(C)C | 38
COC(=O)N[C@H](C(=O)N1CCC[C@H]1C(=O)Nc1ccc([C@@H]2CC[C@@H](c3ccc(NC(=O)[C@@H]4CCCN4C(=O)[C@@H](NC(=O)OC)[C@H]4CCOC4)cc3)N2c2ccc(F)cc2)cc1)[C@H]1CCOC1 | 41
COC(=O)N[C@H](C(=O)N1CCC[C@H]1C(=O)Nc1ccc([C@@H]2CC[C@@H](c3ccc(NC(=O)[C@@H]4CCCN4C(=O)[C@@H](NC(=O)OC)C(C)C)cc3)N2c2ccc(F)cc2)cc1)C(C)C | 44

Documented remaining at 0.5 h of COC(=O)N[C@H](C(=O)N1CCC[C@H]1C(=O)Nc1ccc([C@H]2CC[C@H](c3ccc(NC(=O)[C@@H]4CCCN4C(=O)[C@@H](NC(=O)OC)C(C)(C)C)cc3)N2c2ccc(F)cc2)cc1)C(C)(C)C : 54

Documented remaining at 0.5 h of COC(=O)N[C@H](C(=O)N1CCC[C@H]1C(=O)Nc1ccc([C@@H]2CC[C@@H](c3ccc(NC(=O)[C@@H]4CCCN4C(=O)[C@@H](NC(=O)OC)C(C)(C)C)cc3)N2c2ccc(F)cc2)cc1)C(C)(C)C : 52

###

Test: Half life in dog at 2.5 mg/kg, po
Format: ADME, organism-based, Canis lupus familiaris
Design: dose 2.5 mg/kg, route oral
Settings: in vivo
Test readout: half-life (h)
Give the value, in units of h, as a plain number.

The cases that follow already have their half-life on record.
COC(=O)N[C@H](C(=O)N1CCC[C@H]1C(=O)Nc1ccc([C@H]2CC[C@H](c3ccc(NC(=O)[C@@H]4CCCN4C(=O)[C@@H](NC(=O)OC)C(C)C)cc3)N2c2ccc(F)cc2)cc1)C(C)C | 2.2
COC(=O)N[C@H](C(=O)N1CCC[C@H]1C(=O)Nc1ccc([C@H]2CC[C@H](c3ccc(NC(=O)[C@@H]4CCCN4C(=O)[C@@H](NC(=O)OC)C(C)(C)C)cc3)N2c2ccc(F)cc2)cc1)C(C)(C)C | 10.3
COC(=O)N[C@H](C(=O)N1CCC[C@H]1C(=O)Nc1ccc([C@H]2CC[C@H](c3ccc(NC(=O)[C@@H]4CCCN4C(=O)[C@@H](NC(=O)OC)C(C)C)cc3)N2c2ccc(C(F)(F)F)cc2)cc1)C(C)C | 5.5
COC(=O)N[C@H](C(=O)N1CCC[C@H]1C(=O)Nc1ccc([C@@H]2CC[C@@H](c3ccc(NC(=O)[C@@H]4CCCN4C(=O)[C@@H](NC(=O)OC)C(C)C)cc3)N2c2ccc(C(F)(F)F)cc2)cc1)C(C)C | 5.8

Now turn to the next compound.
Documented half-life of COC(=O)N[C@H](C(=O)N1CCC[C@H]1C(=O)Nc1ccc([C@@H]2CC[C@@H](c3ccc(NC(=O)[C@@H]4CCCN4C(=O)[C@@H](NC(=O)OC)C(C)C)cc3)N2c2ccc(C(C)(C)C)cc2)cc1)C(C)C [OMBITASVIR] : 7.3
